Molecular target: 15-hydroxyprostaglandin dehydrogenase [NAD(+)] (Homo sapiens) (UniProt P15428)
Sequence (P15428 whole entry, looked up): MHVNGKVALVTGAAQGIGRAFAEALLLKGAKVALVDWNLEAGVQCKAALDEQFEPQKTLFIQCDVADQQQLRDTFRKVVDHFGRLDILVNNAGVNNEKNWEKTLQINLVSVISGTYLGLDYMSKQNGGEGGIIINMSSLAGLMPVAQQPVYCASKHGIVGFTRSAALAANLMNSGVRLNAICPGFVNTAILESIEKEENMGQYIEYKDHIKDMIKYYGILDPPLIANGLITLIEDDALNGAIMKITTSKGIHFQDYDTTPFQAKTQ
Assay: qHTS Assay for Inhibitors of HPGD (15-Hydroxyprostaglandin Dehydrogenase)
Conditions: purified HPGD, NADH fluorescence kinetic, PGE2 substrate; stronger effect = lower value
About 6,500 (4.3%) of roughly 150,000 compounds were called active. Roughly 12% stayed inconclusive and do not appear here. This excerpt belongs to a sample that is enriched for actives.
# strict inequality: activity change, negative = inhibition < -10% yields MET, everything else yields NOT MET

COc1ccc(/C=C(\C#N)C(=O)NCCCn2ccnc2)cc1: MET
CCCCC/C=C\C/C=C\CCCCCCCCCC(=O)NCC(=O)O: NOT MET
CNC(=O)CN1C(=O)c2ccccc2S1(=O)=O: NOT MET
CCCn1c(C(O)c2ccc(OCC)cc2)nc2ccccc21 (centres undefined): NOT MET
Cc1ccc(/C=C/C(=O)Nc2cc(S(=O)(=O)N3CCCCCC3)ccc2OCC(F)(F)F)o1: MET
C/C=C(\C)C(=O)O[C@H]1CC(C)=C2C(=O)C=C(C)C2[C@@H]2OC(=O)[C@@](C)(OC(=O)C=C(C)C)C21 (some centres undefined): NOT MET

query: Below -10% on activity change, negative = inhibition? Entry "COCCNc1ncnc2ccc(-c3ccccc3CN(C)C)cc12"
result: NOT MET

query: Next compound up: "CCOC(=O)c1cccnc1NC(=O)c1ccncc1"
result: NOT MET

query: Next compound: "CN1CCC(=NNC(=O)c2ccc(N(Cc3ccc(Cl)cc3)S(C)(=O)=O)cc2)CC1"
result: NOT MET

query: Same lookup for CC(=O)NC1C(OCc2ccccc2)OC(COC(C)=O)C(OC(C)=O)C1OC(C)=O (centres undefined) , please.
result: NOT MET

query: Queued: "Cc1ccc(C(=O)NC(=S)NCCN2CCOCC2)cc1"
result: NOT MET

====

Target: 15-hydroxyprostaglandin dehydrogenase [NAD(+)] (Homo sapiens)
Assay: qHTS Assay for Inhibitors of HPGD (15-Hydroxyprostaglandin Dehydrogenase); for activity change, negative = inhibition: % is set by controls: 0 for no effect and ±100 for the full control effect
Conditions: purified HPGD, NADH fluorescence kinetic, PGE2 substrate; stronger effect = lower value
The whole screen tested about 150,000 compounds, of which about 6,500 (4.3%) were called active. Roughly 12% stayed inconclusive and do not appear here. The entries come from a sample that favours actives as a whole.
Recorded activity change, negative = inhibition for the following molecules
Expressed in %, but write only the number.

COc1ccc(/C=C(/NC(=O)c2ccc(C)cc2)c2nc3ccccc3[nH]2)cc1OC: -24.1
COc1ccc(CC(=O)Nc2ccc(C(=O)NC(C)(C)C)cc2)cc1: -10.9
CN(C)S(=O)(=O)c1cccc(NC(=S)N/N=C/C(=O)c2ccccc2)c1: -16
OC[C@H]1O[C@@H](n2cnc3c(N[C@H]4CC5CCC4C5)ncnc32)[C@H](O)[C@@H]1O (stereo partly specified): -25
CCCCC1N2CC3([N+](=O)[O-])CN1CC([N+](=O)[O-])(C2)C3(C)C (stereo unspecified): -8.6

query: Name the recorded activity change, negative = inhibition for "CC(C)CNC(=S)Nc1ccc(F)cc1" .
result: -4.13

query: Query "COc1ccc(N2CCN(C(=O)CSc3ncnc4c3cnn4-c3ccc(OC)cc3)CC2)cc1" next
result: -8.74

query: Let us now turn to "COc1ccc(/C=C/C(=O)c2ccc(NS(=O)(=O)c3ccc(C)cc3)cc2)cc1O"
result: -19.9

====

Target: 15-hydroxyprostaglandin dehydrogenase [NAD(+)] (Homo sapiens) (UniProt P15428)
Test: qHTS Assay for Inhibitors of HPGD (15-Hydroxyprostaglandin Dehydrogenase); note: potency is the fitted concentration of half-maximal effect
Conditions: purified HPGD, NADH fluorescence kinetic, PGE2 substrate
Description: Human 15-Hydroxyprostaglandin dehydrogenase (HPGD) catalyzes the inactivation of prostaglandin E2, and plays a major role in cancer biology by antagonizing the oncogenic potential of cyclooxygenase type 2 (COX2). Assays are available, based on absorbance/fluorescence increase of NADH with the substrate 15-OH prostaglandin E2. References 1. […] An increase in the fluorescence intensity due to conversion of NAD+ to NADH was used to measure the enzyme activity. […]
In all, about 150,000 compounds went through this assay and about 6,500 (4.3%) were called active. Inconclusive results (about 12%) are left out. The full list was thinned out, with actives kept by preference.
readout-label: Potency

Examples from the recorded data:
CC1(C)CC(=O)C(N=Nc2ccc(S(=O)(=O)N3CCCCCC3)cc2)=C(O)C1: 25.1 µM (active)
O=c1[nH]n(-c2cccc(Cl)c2)c2ncccc12: 6.31 µM (active)
COc1cc(/C=C2/C(=O)ON=C2C)ccc1OCc1ccccc1F: 1.58 µM (active)
Cc1c(Cl)cccc1NC(=O)Nc1ccc(C(=O)N2CCCC2)cc1: 14.1 µM (active)

query: Quick check: Potency of "COCCNC(=O)COc1ccc(C)c(C)c1" ?
result: 20 µM (active)

====

Biological target: 15-hydroxyprostaglandin dehydrogenase [NAD(+)] (Homo sapiens)
Experiment: qHTS Assay for Inhibitors of HPGD (15-Hydroxyprostaglandin Dehydrogenase); for activity change, negative = inhibition: % is set by controls: 0 for no effect and ±100 for the full control effect
Settings: purified HPGD, NADH fluorescence kinetic, PGE2 substrate; stronger effect = lower value
The whole screen tested about 150,000 compounds, of which about 6,500 (4.3%) were called active. Inconclusive results (about 12%) are left out. Only a selection was taken, and actives are over-represented in it overall.
Mark Condition met only when activity change, negative = inhibition stays strictly below -10%. Values equal to the cut-off are Condition not met.

Recorded results for 4 molecules are shown here.
COc1ccc(CNC(=O)CN(Cc2ccc(Cl)cc2)S(C)(=O)=O)cc1: Condition not met
CCOc1cc(/C=N/NC(=O)OC)ccc1OCCSc1ccc(Cl)cc1: Condition met
CC(Sc1nc2cc(Cl)ccc2s1)C(=O)Nc1ccc2c(c1)OCO2 (stereo unspecified): Condition met
COc1cc(/C=C(/NC(=O)c2ccc(Cl)cc2Cl)C(=O)O)cc(OC)c1OC: Condition not met

query: API: query returns whether the molecule falls strictly under -10% in activity change, negative = inhibition. Query: "COc1cc(C(=O)Nc2nccs2)cc(OC)c1OC"
result: Condition met

query: Repeat with "O=c1cc(O)nc(SCc2ccccc2Cl)[nH]1"
result: Condition met

query: Entry to check: "Cc1scc(C(=O)NNC(=S)NCC(C)C)c1C"
result: Condition not met

query: And for "Cc1ccc(S(=O)(=O)N(C)C)cc1NC(=O)/C=C/c1cccs1" ?
result: Condition met

query: Again, but for "CCOC(=O)CNC(=O)/C=C/c1c(Cl)cccc1Cl"
result: Condition not met

====

Molecular target: 15-hydroxyprostaglandin dehydrogenase [NAD(+)] (Homo sapiens)
Test: qHTS Assay for Inhibitors of HPGD (15-Hydroxyprostaglandin Dehydrogenase); for activity change, negative = inhibition: % is set by controls: 0 for no effect and ±100 for the full control effect
Settings: purified HPGD, NADH fluorescence kinetic, PGE2 substrate; stronger effect = lower value
The whole screen tested about 150,000 compounds, of which about 6,500 (4.3%) were called active. Not shown: some 12% with an inconclusive outcome. The list comes from a sample in which actives are over-represented; it also holds close analogues and randomly drawn compounds.
readout-label: activity change, negative = inhibition (%)
Reply with just the number (in %).

Worked examples, 4 compounds total:
CCOC(=O)C1=C(C)OC(N)=C(C#N)C1c1cncc(-c2ccc(F)cc2)c1 (stereo unspecified): -9.79
Cc1ccc(/C(N)=N/OC(=O)COc2ccc(Cl)c(C)c2)cc1: -14.6
C/C(=N\NC(=O)c1ccccc1C)c1ccc(N2CCOCC2)cc1: -15.3
O=C(Nc1nc(-c2ccc(-c3ccccc3)cc2)cs1)c1cnccn1: -5.23

query: Item "CCCCC(=O)Nc1ccc(C(=O)Nc2cc(C(F)(F)F)ccc2Cl)cc1" with 15-hydroxyprostaglandin dehydrogenase [NAD(+)] (Homo sapiens) - activity change, negative = inhibition?
result: -6.97

query: Param item: "Cc1ccc(SCC(=O)Nc2ncc(C)s2)cc1"
result: -20.4

query: // next record CCOc1ccccc1NC(=O)C1CCC(CNc2c(N3CCOCC3)c(=O)c2=O)CC1 (stereo unspecified)
result: -25.1

query: Lookup "CC(C)CNC(=O)c1cc(-c2ccc(Br)cc2)on1"
result: -23.1

query: And N#CC1=C(N)N(c2ccccc2)C2=C(C(=O)CCC2)C1c1ccccc1 (stereo unspecified) ?
result: -8.89

query: Same read-out for "Cc1ccc(SCCC(=O)OCC(=O)Nc2ncc(Cl)cc2Cl)cc1" ?
result: -8.54

query: What do you get for "CSCc1ccc(C(=O)Nc2cc(C)cc(C)c2)cc1" ?
result: -12.7

====

Quick reference: activity change, negative = inhibition of the listed items.
Target: 15-hydroxyprostaglandin dehydrogenase [NAD(+)] (Homo sapiens) (UniProt P15428)
Assay: qHTS Assay for Inhibitors of HPGD (15-Hydroxyprostaglandin Dehydrogenase); for activity change, negative = inhibition: % is set by controls: 0 for no effect and ±100 for the full control effect
Conditions: purified HPGD, NADH fluorescence kinetic, PGE2 substrate; stronger effect = lower value
In all, about 150,000 compounds went through this assay and about 6,500 (4.3%) were called active. Not shown: some 12% with an inconclusive outcome. What follows is part of a selection rich in actives, with near analogues and random picks from the rest.
All answers are understood in %, so give the number only.

Below, each entry is followed by its recorded activity change, negative = inhibition result.
CCCOc1ccc(NC(=O)CC2C(=O)N(C)C(=S)N2Cc2ccc3c(c2)OCO3)cc1 (centres undefined): -0.216
O=C(c1ccc2c(c1)OCO2)N1CCN(C(=O)c2ccco2)CC1: -11.7
Cc1ccc(-c2c(C)n([O-])c3c([n+]2=O)CCC3)cc1: -24.7

Here is another molecule to look at.
query: Query (molecule): COc1cc(CN2CC(C)CC(C)C2)cc([N+](=O)[O-])c1O (centres undefined) ; field requested: activity change, negative = inhibition
result: -17.1
